Where do the numbers come from? From ChEMBL document CHEMBL1153536.

Target Of Assay: P2Y purinoceptor 12 (Homo sapiens)
Sequence (Q9H244 whole entry): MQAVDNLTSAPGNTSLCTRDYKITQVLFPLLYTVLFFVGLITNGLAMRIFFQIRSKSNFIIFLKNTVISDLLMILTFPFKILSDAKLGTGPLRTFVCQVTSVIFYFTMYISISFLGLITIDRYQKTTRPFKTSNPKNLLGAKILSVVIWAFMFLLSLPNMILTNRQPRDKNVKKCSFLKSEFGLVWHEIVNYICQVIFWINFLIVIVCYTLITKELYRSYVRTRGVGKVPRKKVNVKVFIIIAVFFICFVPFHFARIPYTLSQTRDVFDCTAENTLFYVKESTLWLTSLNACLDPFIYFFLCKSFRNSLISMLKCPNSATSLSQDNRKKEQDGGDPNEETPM
Assay Name: Agonist activity at human P2Y12 receptor
Measured Property: EC50 (nM)
Report the figure in nM without appending any unit label.

Problem: Tell me the measured EC50 of "CCCCC/C=C\C\C=C/C=C/C=C/[C@@H](SC[C@H](N)C(=O)O)[C@@H](O)CCCC(=O)O" , please.
Solution: 1.3

----------
# bioavailability values compiled below
Assay Name: Bioavailability in Sprague-Dawley rat at 2 mg/kg, iv and 10 mg/kg, po
Assay type: ADME, organism-based
Test Parameters: Sprague-Dawley, in vivo
Express your answer in %, writing the number without its unit.

Molecule Smiles | Measured Property | Experimental Result
CC(C)(C)Sc1c(CC(C)(C)C(=O)O)n(Cc2ccc(-c3nccs3)cc2)c2ccc(OCc3ccccn3)cc12 | bioavailability | 50
CC(C)(C)Sc1c(CC(C)(C)C(=O)O)n(Cc2ccc(-c3cccnc3)cc2)c2ccc(OCc3ccccn3)cc12 | bioavailability | 8
COc1ccc(-c2ccc(Cn3c(CC(C)(C)C(=O)O)c(SC(C)(C)C)c4cc(OCc5ccccn5)ccc43)cc2)nc1 | bioavailability | 100

Attention now turns to another entry.
Problem: Form field: reported bioavailability of "COc1ccc(-c2ccc(Cn3c(CC(C)(C)C(=O)O)c(SC(C)(C)C)c4cc(OCc5ccccn5)ccc43)cc2)cn1"
Solution: 100

----------
Target Of Assay: Prostaglandin G/H synthase 1 (Homo sapiens, UniProt P23219)
Sequence (P23219 whole entry): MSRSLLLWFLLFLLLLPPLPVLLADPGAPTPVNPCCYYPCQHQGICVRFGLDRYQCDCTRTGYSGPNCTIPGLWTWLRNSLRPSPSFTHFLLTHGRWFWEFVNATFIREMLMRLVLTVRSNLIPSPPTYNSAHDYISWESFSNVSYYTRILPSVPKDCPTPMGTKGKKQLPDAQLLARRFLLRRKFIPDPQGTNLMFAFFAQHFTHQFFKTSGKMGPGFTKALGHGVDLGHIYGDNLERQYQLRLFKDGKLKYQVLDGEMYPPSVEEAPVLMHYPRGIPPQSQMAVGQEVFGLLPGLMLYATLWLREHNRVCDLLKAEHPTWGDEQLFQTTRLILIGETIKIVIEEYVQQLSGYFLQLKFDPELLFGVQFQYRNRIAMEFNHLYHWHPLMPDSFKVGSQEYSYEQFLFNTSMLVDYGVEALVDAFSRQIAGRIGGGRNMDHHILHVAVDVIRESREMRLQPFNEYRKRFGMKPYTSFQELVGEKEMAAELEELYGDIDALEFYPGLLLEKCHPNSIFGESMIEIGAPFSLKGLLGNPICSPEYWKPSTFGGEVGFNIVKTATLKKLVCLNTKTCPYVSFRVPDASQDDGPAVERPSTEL
Assay Name: Inhibition of COX1 in human whole blood
Measured Property: IC50 (nM)
# unit: nM | format: bare number

Problem: Find the recorded IC50 belonging to "COc1ccc(-c2cccc(Cn3c(CC(C)(C)C(=O)O)c(SC(C)(C)C)c4cc(OCc5ccccn5)ccc43)c2)cn1" and report it.
Solution: 420

----------
Assay Name: Clearance in Sprague-Dawley rat 10 mg/kg, po
Assay type: ADME, organism-based
Parameters: dose 10 mg/kg, route oral
Test Parameters: in vivo
Measured Property: CL/F (L/h/kg)
Value expressed in L/h/kg; do not type the unit.

Problem: Could you tell me which CL/F is on file for "COc1ccc(-c2ccc(Cn3c(CC(C)(C)C(=O)O)c(SC(C)(C)C)c4cc(OCc5ccccn5)ccc43)cc2)nc1" ?
Solution: 0.168

----------
Assay Name: Half life in Sprague-Dawley rat at 2 mg/kg, iv
Type: ADME, organism-based
Parameters: dose 2 mg/kg, route intravenous
Test Parameters: in vivo
Measured Property: half-life (h)
Hi! Could you send only the number? It should be in h, unit omitted.

In the examples that follow, each entry is paired with its recorded half-life.
Molecule Smiles | half-life, h
CC(C)(C)Sc1c(CC(C)(C)C(=O)O)n(Cc2ccc(-c3nccs3)cc2)c2ccc(OCc3ccccn3)cc12 | 6.3
COc1ccc(-c2ccc(Cn3c(CC(C)(C)C(=O)O)c(SC(C)(C)C)c4cc(OCc5ccccn5)ccc43)cc2)nn1 | 2.1

Problem: Look up half-life: "COc1ccc(-c2ccc(Cn3c(CC(C)(C)C(=O)O)c(SC(C)(C)C)c4cc(OCc5ccccn5)ccc43)cc2)cn1"
Solution: 2.2

----------
Record: pIC50 reported on Cytochrome P450 2D6 (Homo sapiens, UniProt P10635).
Sequence (P10635 whole entry): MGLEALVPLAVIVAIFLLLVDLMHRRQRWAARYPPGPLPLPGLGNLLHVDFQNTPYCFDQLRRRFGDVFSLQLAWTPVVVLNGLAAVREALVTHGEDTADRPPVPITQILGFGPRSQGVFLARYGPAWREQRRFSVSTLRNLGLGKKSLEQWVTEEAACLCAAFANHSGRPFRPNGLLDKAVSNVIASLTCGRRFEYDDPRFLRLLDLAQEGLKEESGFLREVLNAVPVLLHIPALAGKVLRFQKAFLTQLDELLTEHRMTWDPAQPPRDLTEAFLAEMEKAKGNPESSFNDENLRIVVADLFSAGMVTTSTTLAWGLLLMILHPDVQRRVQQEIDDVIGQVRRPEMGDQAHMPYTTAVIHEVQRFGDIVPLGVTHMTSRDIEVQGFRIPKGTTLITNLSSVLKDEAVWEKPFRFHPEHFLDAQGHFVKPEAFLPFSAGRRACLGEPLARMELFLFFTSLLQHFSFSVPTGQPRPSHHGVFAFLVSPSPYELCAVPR
# pIC50: negative log10 of molar concentration; output just the value

Here is how some compounds turned out for pIC50.
Compound | Experimental Result
CC(C)(C)Sc1c(CC(C)(C)C(=O)O)n(Cc2ccc(-c3nccs3)cc2)c2ccc(OCc3ccccn3)cc12 | 5.40
CC(C)(C)Sc1c(CC(C)(C)C(=O)O)n(Cc2ccc(Cl)cc2)c2ccc(OCc3ccc4ccccc4n3)cc12 [QUIFLAPON] | 4.96

# input for lookup
Problem: What pIC50 appears in the records for this compound with Cytochrome P450 2D6 (Homo sapiens, UniProt P10635)? "CC(C)(C)Sc1c(CC(C)(C)C(=O)O)n(Cc2ccc(-c3cccnc3)cc2)c2ccc(OCc3ccccn3)cc12"
Solution: 5.59
